Please respond with reported Kd for every item in the list.
target-or-system: T1, EsCas13d, nuclease-dead (Eubacterium siraeum, UniProt B0MS50, R295A;H300A;R849A;H854A)
T1 sequence: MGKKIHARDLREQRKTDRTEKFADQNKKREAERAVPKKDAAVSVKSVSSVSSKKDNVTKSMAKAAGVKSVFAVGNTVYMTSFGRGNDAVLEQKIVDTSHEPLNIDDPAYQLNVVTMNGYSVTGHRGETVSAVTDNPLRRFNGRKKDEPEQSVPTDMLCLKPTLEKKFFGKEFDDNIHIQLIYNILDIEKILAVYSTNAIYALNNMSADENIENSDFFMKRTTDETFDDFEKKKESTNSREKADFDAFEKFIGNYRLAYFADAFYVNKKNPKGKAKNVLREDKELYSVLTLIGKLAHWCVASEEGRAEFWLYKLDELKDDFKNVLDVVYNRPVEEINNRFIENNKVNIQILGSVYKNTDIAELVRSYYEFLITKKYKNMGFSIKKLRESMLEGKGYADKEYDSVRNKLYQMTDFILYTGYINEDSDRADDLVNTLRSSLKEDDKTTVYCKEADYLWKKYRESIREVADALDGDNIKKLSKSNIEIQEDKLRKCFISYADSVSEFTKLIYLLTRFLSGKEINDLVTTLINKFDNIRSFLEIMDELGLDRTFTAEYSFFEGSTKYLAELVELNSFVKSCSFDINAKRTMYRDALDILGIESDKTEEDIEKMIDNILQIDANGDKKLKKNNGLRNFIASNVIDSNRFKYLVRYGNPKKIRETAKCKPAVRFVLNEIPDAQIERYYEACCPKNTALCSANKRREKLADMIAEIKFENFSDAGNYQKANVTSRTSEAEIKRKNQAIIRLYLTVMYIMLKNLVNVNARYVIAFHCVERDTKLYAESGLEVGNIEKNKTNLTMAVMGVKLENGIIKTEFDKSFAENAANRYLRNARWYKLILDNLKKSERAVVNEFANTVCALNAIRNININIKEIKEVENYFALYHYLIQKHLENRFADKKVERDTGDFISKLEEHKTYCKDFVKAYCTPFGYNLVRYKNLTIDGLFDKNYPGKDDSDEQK
protocol-text: crRNA (strand 1, pre-loaded); Mg2+; 40 mM Tris-HCl pH 7.5, 150 mM NaCl, 6 mM MgCl2, 1 mM DTT, 0.1% Tween-20, 0.2 mg/ml BSA; 25 C; 10 min per concentration, then washed
stated-conditions: tags: His6-TwinStrep-SUMO cleaved; N-terminal SNAP kept (SNAP-Surface 488); label: 3' end held by stalled T7 RNA polymerase
Answer in nM, number only, no unit symbol.

Return reported Kd; argument: target 1 G12C,A16G (mixed) RNA 1: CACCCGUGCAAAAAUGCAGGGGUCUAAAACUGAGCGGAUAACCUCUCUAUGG RNA 2: GGGAAUGGAUCCACAUCUACGAAUUCGUACCAUAGGGAGCUUAUCCGCUCACCGAGAUCGGAAGAGCACACGU 75

Moving on to target 1 MT 5'PFS UCA 3'PFS ACU (mixed) RNA 1: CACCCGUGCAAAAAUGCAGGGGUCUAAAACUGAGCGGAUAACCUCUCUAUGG RNA 2: GGGAAUGGAUCCACAUCUACGAAUUCUCACCAUAGAGAGGUUAUCCGCUCAACUAGAUCGGAAGAGCACACGU 14

Moving on to target 3 U2G,A13G (mixed) RNA 1: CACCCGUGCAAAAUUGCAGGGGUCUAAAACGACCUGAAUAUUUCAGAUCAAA RNA 2: GGGAAUGGAUCCACAUCUACGAAUUCGUUUUUGAUCUGGAAUAUUCAGGGCUGCAGAUCGGAAGAGCACACGU 73.5

Moving on to target 1 G13C,A14G (mixed) RNA 1: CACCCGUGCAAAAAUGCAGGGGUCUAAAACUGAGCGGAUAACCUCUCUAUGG RNA 2: GGGAAUGGAUCCACAUCUACGAAUUCGUACCAUAGAGGCGUUAUCCGCUCACCGAGAUCGGAAGAGCACACGU 31

Moving on to target 1 insA 3' of 21,insA 3' of 11 (mixed) RNA 1: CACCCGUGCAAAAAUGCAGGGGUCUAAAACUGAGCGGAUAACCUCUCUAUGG RNA 2: GGGAAUGGAUCCACAUCUACGAAUUCGUACCAAUAGAGAGGUAUAUCCGCUCACCGAGAUCGGAAGAGCACACGU 36.6

Moving on to target 1 C4A,U11A (mixed) RNA 1: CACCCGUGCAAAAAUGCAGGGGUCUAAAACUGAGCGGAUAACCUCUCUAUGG RNA 2: GGGAAUGGAUCCACAUCUACGAAUUCGUACCAUAGAGAGGAUAUCCGAUCACCGAGAUCGGAAGAGCACACGU 23.9

Moving on to target 1 G5U,C7U (mixed) RNA 1: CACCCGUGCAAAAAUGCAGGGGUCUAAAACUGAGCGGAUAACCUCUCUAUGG RNA 2: GGGAAUGGAUCCACAUCUACGAAUUCGUACCAUAGAGAGGUUAUUCUCUCACCGAGAUCGGAAGAGCACACGU 53

Moving on to target 1 insA 3' of 19,insC 3' of 19 (mixed) RNA 1: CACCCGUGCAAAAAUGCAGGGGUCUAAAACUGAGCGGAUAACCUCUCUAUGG RNA 2: GGGAAUGGAUCCACAUCUACGAAUUCGUACCAUACAGAGAGGUUAUCCGCUCACCGAGAUCGGAAGAGCACACGU 21.5

Moving on to target 1 C7G,U8G (mixed) RNA 1: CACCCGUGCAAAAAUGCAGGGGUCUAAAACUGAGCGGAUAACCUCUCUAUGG RNA 2: GGGAAUGGAUCCACAUCUACGAAUUCGUACCAUAGAGAGGUUAGGCGCUCACCGAGAUCGGAAGAGCACACGU 11.5

Moving on to target 1 insC 3' of 9,insG 3' of 7 (mixed) RNA 1: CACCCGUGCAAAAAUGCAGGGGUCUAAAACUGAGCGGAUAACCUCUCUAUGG RNA 2: GGGAAUGGAUCCACAUCUACGAAUUCGUACCAUAGAGAGGUUACUCGCGCUCACCGAGAUCGGAAGAGCACACGU 11.4

Moving on to target 2 MT 5'PFS GCG 3'PFS UCU (mixed) RNA 1: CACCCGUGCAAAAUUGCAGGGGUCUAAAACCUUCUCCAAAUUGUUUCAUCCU RNA 2: GGGAAUGGAUCCACAUCUACGAAUUCGCGAGGAUGAAACAAUUUGGAGAAGUCUAGAUCGGAAGAGCACACGU 31

Moving on to target 2 MT 5'PFS AGG 3'PFS CAG (mixed) RNA 1: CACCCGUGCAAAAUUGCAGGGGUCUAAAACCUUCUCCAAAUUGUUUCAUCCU RNA 2: GGGAAUGGAUCCACAUCUACGAAUUCAGGAGGAUGAAACAAUUUGGAGAAGCAGAGAUCGGAAGAGCACACGU 4.8
